- ASSAY SYSTEM: recombinant homotrimeric HA A/South Carolina/1/18 H1N1 (Influenza A virus A/South Carolina/1/18 (H1N1))
- PROTOCOL NOTES: protein microarray, purified IgG, trimeric HA
- DETAILS: remark: other sources report otherwise
VALUE TYPE: Trimeric HA Binding: RLU
Include the unit right after the number.

TCN-540 (5060_F05) (antibody, V domains shown) VH: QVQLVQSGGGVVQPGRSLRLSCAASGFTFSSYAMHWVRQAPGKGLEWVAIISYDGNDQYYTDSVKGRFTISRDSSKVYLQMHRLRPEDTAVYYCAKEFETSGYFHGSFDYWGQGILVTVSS VL: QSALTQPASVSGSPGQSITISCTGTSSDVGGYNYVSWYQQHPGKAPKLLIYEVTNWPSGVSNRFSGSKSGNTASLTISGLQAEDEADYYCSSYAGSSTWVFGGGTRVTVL : 139 RLU

Consider TCN-523 (5248_A17) (antibody, V domains shown) VH: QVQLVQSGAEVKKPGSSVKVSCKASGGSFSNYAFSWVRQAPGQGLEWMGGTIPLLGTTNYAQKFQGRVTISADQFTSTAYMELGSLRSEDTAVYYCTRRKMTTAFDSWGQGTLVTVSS VL: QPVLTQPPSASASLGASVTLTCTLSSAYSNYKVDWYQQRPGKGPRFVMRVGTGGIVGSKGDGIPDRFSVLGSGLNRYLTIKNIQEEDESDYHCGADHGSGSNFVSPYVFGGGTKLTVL . Its measured Trimeric HA Binding: RLU is 9720 RLU
